Target: Syk (Homo sapiens, UniProt P43405)
Experiment: kinase selectivity panel
Format: biochemical
Conditions: read-out: percentage of control activity (POC), Syk
I'd be grateful if you could share measured remaining activity at 10 µM for these entries.
Give bare numbers, in %.

Take a look at these entries with their results.
>>> print(df.to_string())
                                   compound                 readout_kind  reported_measurement
0  CC(C)(C)N1CCC(c2cc(-c3ccc(F)cc3Cl)c3cc[n+]([O-])c(-c4c(Cl)cccc4Cl)c3n2)CC1 [compound 2]  remaining activity at 10 µM                    95
1  Cn1cc(-c2cccc(-c3nc(C(=O)NC4C5CC6CC4CC(O)(C6)C5)c(N)nc3N)c2)cn1 (centres unmarked) [compound 4]  remaining activity at 10 µM                    66
2  Cc1ccc(C(=O)NCC2CC2)cc1-c1ccc2c(c1)NC(=O)C21CCCC1 [compound 3]  remaining activity at 10 µM                   101

Provide remaining activity at 10 µM values for the following items, in order.
1. COc1c(NC(=O)c2ccc(C)c(-c3nnc4c(NCC(C)(C)C)nccn34)c2)cc(C(C)(C)C)cc1NS(C)(=O)=O [compound 7, reference compound]
2. CS(=O)(=O)N1CCN(c2ccc(Nc3ncc(C(N)=O)c(NC4CC4)n3)cc2)CC1 [compound 5]

Result ::
[86, 0]

* * *

Hi there, I'd appreciate the recorded remaining activity at 10 µM for every entry that follows.
Target: JAK3 (Homo sapiens, UniProt P52333)
Construct: purchased Eurofins Pharma Discovery Services (KinaseProfiler; Cerep BioPrint panel)
Sequence (P52333 whole entry): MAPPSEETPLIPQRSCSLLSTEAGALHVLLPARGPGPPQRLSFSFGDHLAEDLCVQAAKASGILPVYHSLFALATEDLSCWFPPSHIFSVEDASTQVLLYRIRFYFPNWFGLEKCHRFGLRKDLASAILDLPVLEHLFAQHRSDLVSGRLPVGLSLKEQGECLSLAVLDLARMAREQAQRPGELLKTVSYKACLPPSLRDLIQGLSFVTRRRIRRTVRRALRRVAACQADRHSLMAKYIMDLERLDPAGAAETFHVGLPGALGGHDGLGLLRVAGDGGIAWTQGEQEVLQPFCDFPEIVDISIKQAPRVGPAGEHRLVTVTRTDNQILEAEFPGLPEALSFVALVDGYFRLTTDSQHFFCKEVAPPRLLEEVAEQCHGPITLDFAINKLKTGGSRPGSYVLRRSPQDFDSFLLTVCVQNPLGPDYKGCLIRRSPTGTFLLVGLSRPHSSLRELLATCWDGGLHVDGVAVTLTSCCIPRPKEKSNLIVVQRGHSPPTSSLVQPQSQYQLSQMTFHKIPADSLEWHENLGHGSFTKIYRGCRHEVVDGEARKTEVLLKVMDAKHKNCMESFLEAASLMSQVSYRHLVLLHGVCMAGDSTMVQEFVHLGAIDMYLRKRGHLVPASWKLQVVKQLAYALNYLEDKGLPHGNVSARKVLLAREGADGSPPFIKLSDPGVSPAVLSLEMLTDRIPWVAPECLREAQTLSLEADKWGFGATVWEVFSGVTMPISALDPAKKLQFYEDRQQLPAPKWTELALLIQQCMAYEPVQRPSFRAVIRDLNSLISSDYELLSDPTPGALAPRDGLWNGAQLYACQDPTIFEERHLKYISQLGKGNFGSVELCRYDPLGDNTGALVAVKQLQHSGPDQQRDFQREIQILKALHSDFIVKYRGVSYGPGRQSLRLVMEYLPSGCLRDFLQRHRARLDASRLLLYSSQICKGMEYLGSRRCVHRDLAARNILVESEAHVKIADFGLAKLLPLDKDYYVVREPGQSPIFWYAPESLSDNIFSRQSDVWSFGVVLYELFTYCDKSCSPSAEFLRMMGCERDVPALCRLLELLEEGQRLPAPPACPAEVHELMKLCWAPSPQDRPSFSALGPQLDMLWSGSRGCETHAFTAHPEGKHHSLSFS
Assay: kinase selectivity panel
Type: biochemical
Settings: read-out: percentage of control activity (POC), JAK3
Give bare numbers, in %.

Example compounds with recorded remaining activity at 10 µM:
>>> df
                                   compound  reported_measurement
0  CC(C)(C)N1CCC(c2cc(-c3ccc(F)cc3Cl)c3cc[n+]([O-])c(-c4c(Cl)cccc4Cl)c3n2)CC1 [compound 2]                   102
1  Cc1ccc(C(=O)NCC2CC2)cc1-c1ccc2c(c1)NC(=O)C21CCCC1 [compound 3]                   100
2  Cn1cc(-c2cccc(-c3nc(C(=O)NC4C5CC6CC4CC(O)(C6)C5)c(N)nc3N)c2)cn1 (centres unmarked) [compound 4]                    89
3  COc1c(NC(=O)c2ccc(C)c(-c3nnc4c(NCC(C)(C)C)nccn34)c2)cc(C(C)(C)C)cc1NS(C)(=O)=O [compound 7, reference compound]                    99

Query :: Observed remaining activity at 10 µM on JAK3 (Homo sapiens, UniProt P52333) for CS(=O)(=O)N1CCN(c2ccc(Nc3ncc(C(N)=O)c(NC4CC4)n3)cc2)CC1 [compound 5] , please.
Result :: -2

* * *

Would you kindly list remaining activity at 10 µM for each of these compounds?
Target: eEF-2K (Homo sapiens, UniProt O00418)
Construct: purchased Eurofins Pharma Discovery Services (KinaseProfiler; Cerep BioPrint panel)
Assay: kinase selectivity panel
Assay type: biochemical
Details: read-out: percentage of control activity (POC), eEF-2K
Numbers only, in %.

These solved cases illustrate the format of a correct answer.
>>> df
                                   compound                        measured_target  units_symbol  reported_measurement
0  CC(C)(C)N1CCC(c2cc(-c3ccc(F)cc3Cl)c3cc[n+]([O-])c(-c4c(Cl)cccc4Cl)c3n2)CC1 [compound 2]  eEF-2K (Homo sapiens, UniProt O00418)             %                   115
1  CS(=O)(=O)N1CCN(c2ccc(Nc3ncc(C(N)=O)c(NC4CC4)n3)cc2)CC1 [compound 5]  eEF-2K (Homo sapiens, UniProt O00418)             %                    97
2  Cn1cc(-c2cccc(-c3nc(C(=O)NC4C5CC6CC4CC(O)(C6)C5)c(N)nc3N)c2)cn1 (centres unmarked) [compound 4]  eEF-2K (Homo sapiens, UniProt O00418)             %                   115
3  COc1c(NC(=O)c2ccc(C)c(-c3nnc4c(NCC(C)(C)C)nccn34)c2)cc(C(C)(C)C)cc1NS(C)(=O)=O [compound 7, reference compound]  eEF-2K (Homo sapiens, UniProt O00418)             %                   128

Shifting focus to the compound that follows.
Query :: What value of measured remaining activity at 10 µM is listed for Cc1ccc(C(=O)NCC2CC2)cc1-c1ccc2c(c1)NC(=O)C21CCCC1 [compound 3] ?
Result :: 111

* * *

Molecular target: MSK2 (Homo sapiens, UniProt O75676)
Construct: purchased Eurofins Pharma Discovery Services (KinaseProfiler; Cerep BioPrint panel)
Sequence (O75676 whole entry): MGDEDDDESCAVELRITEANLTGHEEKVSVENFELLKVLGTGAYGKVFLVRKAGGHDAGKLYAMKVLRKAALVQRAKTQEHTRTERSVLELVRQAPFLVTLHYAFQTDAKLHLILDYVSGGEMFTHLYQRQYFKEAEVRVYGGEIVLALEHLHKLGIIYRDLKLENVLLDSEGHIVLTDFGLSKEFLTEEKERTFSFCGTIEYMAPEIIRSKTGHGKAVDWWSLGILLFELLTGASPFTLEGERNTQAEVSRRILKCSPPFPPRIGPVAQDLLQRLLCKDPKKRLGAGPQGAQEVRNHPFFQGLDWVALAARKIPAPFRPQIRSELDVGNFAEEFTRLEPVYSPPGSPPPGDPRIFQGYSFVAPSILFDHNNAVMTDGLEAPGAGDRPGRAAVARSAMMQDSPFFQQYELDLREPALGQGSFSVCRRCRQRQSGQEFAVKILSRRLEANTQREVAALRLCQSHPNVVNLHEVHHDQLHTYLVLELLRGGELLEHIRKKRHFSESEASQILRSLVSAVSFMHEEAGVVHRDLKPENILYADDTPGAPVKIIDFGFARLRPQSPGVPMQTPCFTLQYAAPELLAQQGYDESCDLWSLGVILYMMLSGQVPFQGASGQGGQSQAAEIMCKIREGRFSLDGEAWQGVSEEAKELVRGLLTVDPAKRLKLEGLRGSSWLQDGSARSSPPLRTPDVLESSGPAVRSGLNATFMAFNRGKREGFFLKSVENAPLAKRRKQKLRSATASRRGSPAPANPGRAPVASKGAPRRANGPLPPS
Test: kinase selectivity panel
Type: biochemical
Details: read-out: percentage of control activity (POC), MSK2
readout.kind: remaining activity at 10 µM (%)
One number for each entry, in %.

Some solved cases for reference:
In [3]: df
Out[3]:
                                   compound                 readout_kind  units_symbol  reported_measurement
0  CS(=O)(=O)N1CCN(c2ccc(Nc3ncc(C(N)=O)c(NC4CC4)n3)cc2)CC1  remaining activity at 10 µM             %                    21
1  CC(C)(C)N1CCC(c2cc(-c3ccc(F)cc3Cl)c3cc[n+]([O-])c(-c4c(Cl)cccc4Cl)c3n2)CC1  remaining activity at 10 µM             %                    90
2  Cc1ccc(C(=O)NCC2CC2)cc1-c1ccc2c(c1)NC(=O)C21CCCC1  remaining activity at 10 µM             %                    91
3  COc1c(NC(=O)c2ccc(C)c(-c3nnc4c(NCC(C)(C)C)nccn34)c2)cc(C(C)(C)C)cc1NS(C)(=O)=O [compound 7, reference compound]  remaining activity at 10 µM             %                   109

The record that follows has no remaining activity at 10 µM shown yet.
Query :: Give MSK2 (Homo sapiens, UniProt O75676) remaining activity at 10 µM for Cn1cc(-c2cccc(-c3nc(C(=O)NC4C5CC6CC4CC(O)(C6)C5)c(N)nc3N)c2)cn1 (centres unmarked)
Result :: 96

* * *

Molecular target: JNK1α1 (Homo sapiens, UniProt P45983)
Construct: purchased Eurofins Pharma Discovery Services (KinaseProfiler; Cerep BioPrint panel)
Sequence (P45983 1-384 isoform P45983-2): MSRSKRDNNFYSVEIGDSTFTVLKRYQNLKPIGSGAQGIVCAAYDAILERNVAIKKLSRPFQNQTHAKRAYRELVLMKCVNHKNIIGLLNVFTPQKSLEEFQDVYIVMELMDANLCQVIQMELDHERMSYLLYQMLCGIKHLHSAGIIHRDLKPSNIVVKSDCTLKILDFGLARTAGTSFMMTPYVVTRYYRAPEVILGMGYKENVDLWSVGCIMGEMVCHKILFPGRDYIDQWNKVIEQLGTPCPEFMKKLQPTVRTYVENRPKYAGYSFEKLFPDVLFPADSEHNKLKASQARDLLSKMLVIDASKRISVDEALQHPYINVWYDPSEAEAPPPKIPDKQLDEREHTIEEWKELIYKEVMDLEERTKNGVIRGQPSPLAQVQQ
Experiment: kinase selectivity panel
Type: biochemical
Conditions: read-out: percentage of control activity (POC), JNK1α1
readout.kind: remaining activity at 10 µM

Example results:
In [3]: df
Out[3]:
                                   compound  reported_measurement
0  CS(=O)(=O)N1CCN(c2ccc(Nc3ncc(C(N)=O)c(NC4CC4)n3)cc2)CC1                    3%
1  CC(C)(C)N1CCC(c2cc(-c3ccc(F)cc3Cl)c3cc[n+]([O-])c(-c4c(Cl)cccc4Cl)c3n2)CC1                   97%

Answer for every listed entry: what is its remaining activity at 10 µM? The entries follow.
1. COc1c(NC(=O)c2ccc(C)c(-c3nnc4c(NCC(C)(C)C)nccn34)c2)cc(C(C)(C)C)cc1NS(C)(=O)=O [compound 7, reference compound]
2. Cc1ccc(C(=O)NCC2CC2)cc1-c1ccc2c(c1)NC(=O)C21CCCC1
3. Cn1cc(-c2cccc(-c3nc(C(=O)NC4C5CC6CC4CC(O)(C6)C5)c(N)nc3N)c2)cn1 (centres unmarked)

Result ::
1: 96%; 2: 96%; 3: 92%

* * *

Biological target: LOK (Homo sapiens)
Construct: purchased Eurofins Pharma Discovery Services (KinaseProfiler; Cerep BioPrint panel)
Sequence (O94804 whole entry): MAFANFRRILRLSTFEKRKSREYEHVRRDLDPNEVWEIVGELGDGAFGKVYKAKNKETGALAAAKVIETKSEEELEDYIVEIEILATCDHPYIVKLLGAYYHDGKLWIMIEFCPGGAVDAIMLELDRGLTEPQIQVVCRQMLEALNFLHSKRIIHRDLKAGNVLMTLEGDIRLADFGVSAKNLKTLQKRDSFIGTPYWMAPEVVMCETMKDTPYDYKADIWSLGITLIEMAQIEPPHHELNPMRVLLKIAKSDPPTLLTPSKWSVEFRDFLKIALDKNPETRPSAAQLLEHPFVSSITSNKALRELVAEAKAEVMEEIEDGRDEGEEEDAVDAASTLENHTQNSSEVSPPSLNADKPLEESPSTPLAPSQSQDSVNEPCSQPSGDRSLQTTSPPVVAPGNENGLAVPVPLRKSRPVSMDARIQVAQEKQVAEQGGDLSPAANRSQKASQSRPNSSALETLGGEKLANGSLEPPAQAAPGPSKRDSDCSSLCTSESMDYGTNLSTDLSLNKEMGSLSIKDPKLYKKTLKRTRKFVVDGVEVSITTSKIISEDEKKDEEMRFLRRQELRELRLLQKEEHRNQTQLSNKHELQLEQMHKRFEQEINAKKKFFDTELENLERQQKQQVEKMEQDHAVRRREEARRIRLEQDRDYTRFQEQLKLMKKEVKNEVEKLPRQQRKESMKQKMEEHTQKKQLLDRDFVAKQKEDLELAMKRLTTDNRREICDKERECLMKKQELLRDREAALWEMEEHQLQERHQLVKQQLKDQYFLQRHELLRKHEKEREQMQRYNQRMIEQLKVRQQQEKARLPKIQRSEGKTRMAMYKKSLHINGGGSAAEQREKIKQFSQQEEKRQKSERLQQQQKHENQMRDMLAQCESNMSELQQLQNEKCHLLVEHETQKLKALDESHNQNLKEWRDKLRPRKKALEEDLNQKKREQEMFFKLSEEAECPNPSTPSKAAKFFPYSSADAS
Assay: kinase selectivity panel
Type: biochemical
Conditions: read-out: percentage of control activity (POC), LOK
Exercise: for every item that follows, state its recorded remaining activity at 10 µM.
One number for each entry, in %.

>>> df
                                   compound  units_symbol  reported_measurement
0  COc1c(NC(=O)c2ccc(C)c(-c3nnc4c(NCC(C)(C)C)nccn34)c2)cc(C(C)(C)C)cc1NS(C)(=O)=O [compound 7, reference compound]             %                   135

// input: 3 compounds below; output: remaining activity at 10 µM for each
1. CC(C)(C)N1CCC(c2cc(-c3ccc(F)cc3Cl)c3cc[n+]([O-])c(-c4c(Cl)cccc4Cl)c3n2)CC1
2. Cn1cc(-c2cccc(-c3nc(C(=O)NC4C5CC6CC4CC(O)(C6)C5)c(N)nc3N)c2)cn1 (centres unmarked)
3. CS(=O)(=O)N1CCN(c2ccc(Nc3ncc(C(N)=O)c(NC4CC4)n3)cc2)CC1

Result ::
107
109
14

Query :: Which remaining activity at 10 µM value belongs to "Cc1ccc(C(=O)NCC2CC2)cc1-c1ccc2c(c1)NC(=O)C21CCCC1" ?
Result :: 112
